Just for reference, ChEMBL document CHEMBL4513216 is where these values come from.

- Test system: Plasmodium berghei
- procedure.text: Screen against P. berghei liver stage (PbLuc), transformed with Luciferase, at 10uM
- Format: functional, HepG2
- particulars: tested at 10 uM
Among all 69,000 compounds or so, about 8,600 (12%) showed an effect of 50% or more. The sample holds strong results, similar compounds and a random draw of the others, so the mix is not that of the screen.
I'd appreciate it if you could supply INHIBITION values for the items below.
The reply should be a number in %, with the unit left off.

INHIBITION for `CNC(=O)c1[nH]nc2ccc(I)cc12` is 77.7

INHIBITION for `c1ccc(OCc2nnn3c2CN(c2ncccn2)CCC3)nc1` is 57.1

INHIBITION for `CC(C)N(CCNC(=O)c1[nH]nc2ccc(I)cc12)C(C)C` is 58.2

INHIBITION for `COc1ncccc1C(=O)N1CC[C@H]2C[C@@H](C)O[C@@H]2C1` is -40.3

INHIBITION for `CNC(=O)c1ccc2c(OC)n(C)nc2c1` is 20.7

INHIBITION for `Cc1nn(CC(=O)Nc2ccon2)cc1Br` is 20.1

INHIBITION for `CCS(=O)(=O)N1CCCn2nnc(CNC(C)=O)c2C1` is 52.1

INHIBITION for `CCS(=O)(=O)N1CCCn2nnc(Cn3cccc3)c2C1` is 36.5

INHIBITION for `CN(C)CCNC(=O)Cc1cccc(I)c1` is 1.75

INHIBITION for CNC(=O)c1cc(C2CCCNC2)n[nH]1 (configuration not stated) is 5.34

INHIBITION for `Cc1ccc(C(=O)CN2C(=O)c3ccccc3CS2(=O)=O)c(C)c1` is 65.3

INHIBITION for `Cc1ccc(C)c(C(=O)CN2C(=O)c3ccccc3CS2(=O)=O)c1` is 56.8

====

- Test system: Plasmodium berghei
- procedure.text: Screen against P. berghei liver stage (PbLuc), transformed with Luciferase, at 10uM
- Format: functional, HepG2
- particulars: tested at 10 uM
The whole screen tested about 69,000 compounds, of which about 8,600 (12%) showed an effect of 50% or more. The full list was thinned out, with strong results kept by preference.
value.type: INHIBITION (%)
The reply should be a number in %, with the unit left off.

INHIBITION for `Cc1nccc(NCc2cncc3c2CCN(S(C)(=O)=O)C3)n1` is 59.3

INHIBITION for `Cc1ccc(NCc2cncc3c2CCN(Cc2ccccn2)C3)nn1` is -30.7

INHIBITION for `O=C(CN(Cc1ccccc1)CC1CCOCC1)Nc1nccs1` is -1.53

INHIBITION for CC(c1nnc(-c2cccs2)o1)N1CCn2c(nnc2C2CC2)C1 (stereo unspecified) is 51.5

INHIBITION for `CCCC(=O)NCCc1cc(N2CCN(C(C)=O)CC2)nc(C2CC2)n1` is 46

INHIBITION for CC(C)NC(=O)C(c1ccccc1)N1CCn2c(nnc2C2CC2)C1 (stereo unspecified) is 50.4

INHIBITION for CC(C)c1nnc2n1CCN(C(C)c1nnc(-c3cccs3)o1)C2 (stereo unspecified) is 21.1

INHIBITION for COC(=O)c1ccoc1CN(C1CC1)C1CCS(=O)(=O)C1 (stereo unspecified) is 42.8

INHIBITION for `CCC(=O)NCCc1cc(N2CCN(C(C)=O)CC2)nc(C2CC2)n1` is 51.2

INHIBITION for O=C1C(NS(=O)(=O)c2ccc(F)c(F)c2)CCN1Cc1ccccc1 (stereo unspecified) is 21.5

INHIBITION for O=C(NC1CC1)C(c1ccccc1)N1CCn2c(nnc2C2CC2)C1 (stereo unspecified) is 6.05
